CONDITION: 343.15 K; 101.33 kPa; Liquid; Capillary tube (Ostwald / Ubbelohde) method
READOUT KIND: viscosity (mPa·s)

Please review the entries below; each comes with its answer.
- COMPOUND: "C[n+]1ccn(CCCN)c1.c1c[n-]cn1 [1-(3-aminopropyl)-3-methylimidazolium imidazolide]"
  READOUT KIND: "viscosity"
  UNITS LABEL: "mPa·s"
  OBSERVED RESULT: 13.7
- COMPOUND: "C[n+]1ccn(CCn2cc[n+](C)c2)c1.c1c[n-]cn1.c1c[n-]cn1"
  READOUT KIND: "viscosity"
  UNITS LABEL: "mPa·s"
  OBSERVED RESULT: 145.1
- COMPOUND: "C[n+]1ccn(CCCCn2cc[n+](C)c2)c1.c1c[n-]cn1.c1c[n-]cn1"
  READOUT KIND: "viscosity"
  UNITS LABEL: "mPa·s"
  OBSERVED RESULT: 111.5
- COMPOUND: "CCCCn1cc[n+](C)c1.c1c[n-]cn1 [1-butyl-3-methylimidazolium imidazolide]"
  READOUT KIND: "viscosity"
  UNITS LABEL: "mPa·s"
  OBSERVED RESULT: 34

P: CCn1cc[n+](C)c1.c1c[n-]cn1 [1-ethyl-3-methylimidazolium imidazolide]
Q: C[n+]1ccn(CCO)c1.c1c[n-]cn1 [1-(2-hydroxyethyl)-3-methylimidazolium imidazolide]
// compare measured viscosity between P and Q ; output the lower one Give the label of your selection. P

* * *

CONDITION: 313.15 K; 101.33 kPa; Liquid; Capillary tube (Ostwald / Ubbelohde) method
READOUT KIND: viscosity (mPa·s)

Please review the entries below; each comes with its answer.
- COMPOUND: "C[n+]1ccn(CCCN)c1.c1c[n-]cn1 [1-(3-aminopropyl)-3-methylimidazolium imidazolide]"
  UNITS LABEL: "mPa·s"
  viscosity: 54.5
- COMPOUND: "C[n+]1ccn(CCn2cc[n+](C)c2)c1.c1c[n-]cn1.c1c[n-]cn1"
  UNITS LABEL: "mPa·s"
  viscosity: 2538
- COMPOUND: "C[n+]1ccn(CCCCn2cc[n+](C)c2)c1.c1c[n-]cn1.c1c[n-]cn1"
  UNITS LABEL: "mPa·s"
  viscosity: 1003

1: C[n+]1ccn(CCO)c1.c1c[n-]cn1 [1-(2-hydroxyethyl)-3-methylimidazolium imidazolide]
2: CCn1cc[n+](C)c1.c1c[n-]cn1 [1-ethyl-3-methylimidazolium imidazolide]
3: CCCCn1cc[n+](C)c1.c1c[n-]cn1 [1-butyl-3-methylimidazolium imidazolide]
Sort entries by viscosity from minimum to maximum value. List labels; respect the requested ordering. 2, 3, 1
(2: 42.4 mPa·s, 3: 140 mPa·s, 1: 3632 mPa·s)

* * *

CONDITION: 333.15 K; 101.33 kPa; Liquid; Capillary tube (Ostwald / Ubbelohde) method
READOUT KIND: viscosity (mPa·s)

Please review the entries below; each comes with its answer.
- COMPOUND: "CCCCn1cc[n+](C)c1.c1c[n-]cn1 [1-butyl-3-methylimidazolium imidazolide]"
  viscosity / mPa·s: 47.5
- COMPOUND: "C[n+]1ccn(CCn2cc[n+](C)c2)c1.c1c[n-]cn1.c1c[n-]cn1"
  viscosity / mPa·s: 440.2
- COMPOUND: "C[n+]1ccn(CCCN)c1.c1c[n-]cn1 [1-(3-aminopropyl)-3-methylimidazolium imidazolide]"
  viscosity / mPa·s: 19.9

I: CCn1cc[n+](C)c1.c1c[n-]cn1 [1-ethyl-3-methylimidazolium imidazolide]
II: C[n+]1ccn(CCCCn2cc[n+](C)c2)c1.c1c[n-]cn1.c1c[n-]cn1
III: C[n+]1ccn(CCO)c1.c1c[n-]cn1 [1-(2-hydroxyethyl)-3-methylimidazolium imidazolide]
Highest viscosity first, then in falling order down to the smallest. List labels; respect the requested ordering. III, II, I
(III: 615.2 mPa·s, II: 206.3 mPa·s, I: 14.8 mPa·s)

* * *

CONDITION: 323.15 K; 101.33 kPa; Liquid; Alternating current cell with electrodes
READOUT KIND: electrical conductivity (S/m)

I: C[n+]1ccn(CCn2cc[n+](C)c2)c1.c1c[n-]cn1.c1c[n-]cn1
II: CCCCn1cc[n+](C)c1.c1c[n-]cn1 [1-butyl-3-methylimidazolium imidazolide]
Which of the two items, I and II , has the greater recorded electrical conductivity? Give the label of your selection. II
(II: 0.481 S/m, I: 0.145 S/m)

A: C[n+]1ccn(CCCN)c1.c1c[n-]cn1 [1-(3-aminopropyl)-3-methylimidazolium imidazolide]
B: CCn1cc[n+](C)c1.c1c[n-]cn1 [1-ethyl-3-methylimidazolium imidazolide]
C: C[n+]1ccn(CCO)c1.c1c[n-]cn1 [1-(2-hydroxyethyl)-3-methylimidazolium imidazolide]
D: C[n+]1ccn(CCCCn2cc[n+](C)c2)c1.c1c[n-]cn1.c1c[n-]cn1
Sort entries by electrical conductivity from minimum to maximum value. List labels; respect the requested ordering. C, D, A, B
(C: 0.00646 S/m, D: 0.283 S/m, A: 0.504 S/m, B: 1.24 S/m)

* * *

CONDITION: Glass; DTA
READOUT KIND: Glass transition temperature (°C)

- MOLECULE: "C[n+]1ccn(CCCN)c1.c1c[n-]cn1 [1-(3-aminopropyl)-3-methylimidazolium imidazolide]"
  OBSERVED RESULT: -55.02
- MOLECULE: "C[n+]1ccn(CCn2cc[n+](C)c2)c1.c1c[n-]cn1.c1c[n-]cn1"
  OBSERVED RESULT: -56.18
- MOLECULE: "CCCCn1cc[n+](C)c1.c1c[n-]cn1 [1-butyl-3-methylimidazolium imidazolide]"
  OBSERVED RESULT: -56.01
- MOLECULE: "C[n+]1ccn(CCO)c1.c1c[n-]cn1 [1-(2-hydroxyethyl)-3-methylimidazolium imidazolide]"
  OBSERVED RESULT: -54.01
- MOLECULE: "C[n+]1ccn(CCCCn2cc[n+](C)c2)c1.c1c[n-]cn1.c1c[n-]cn1"
  OBSERVED RESULT: -54.34
- MOLECULE: "CCn1cc[n+](C)c1.c1c[n-]cn1 [1-ethyl-3-methylimidazolium imidazolide]"
  OBSERVED RESULT: -60.01

* * *

CONDITION: 343.15 K; 101.33 kPa; Liquid; Pycnometric method
READOUT KIND: mass density (kg/m3)

- COMPOUND: "CCCCn1cc[n+](C)c1.c1c[n-]cn1 [1-butyl-3-methylimidazolium imidazolide]"
  mass density (kg/m3): 1054.1
- COMPOUND: "C[n+]1ccn(CCn2cc[n+](C)c2)c1.c1c[n-]cn1.c1c[n-]cn1"
  mass density (kg/m3): 1178.9
- COMPOUND: "C[n+]1ccn(CCO)c1.c1c[n-]cn1 [1-(2-hydroxyethyl)-3-methylimidazolium imidazolide]"
  mass density (kg/m3): 1272.3
- COMPOUND: "CCn1cc[n+](C)c1.c1c[n-]cn1 [1-ethyl-3-methylimidazolium imidazolide]"
  mass density (kg/m3): 1079.7
- COMPOUND: "C[n+]1ccn(CCCCn2cc[n+](C)c2)c1.c1c[n-]cn1.c1c[n-]cn1"
  mass density (kg/m3): 1148.9
- COMPOUND: "C[n+]1ccn(CCCN)c1.c1c[n-]cn1 [1-(3-aminopropyl)-3-methylimidazolium imidazolide]"
  mass density (kg/m3): 1120.8

* * *

CONDITION: 313.15 K; 101.33 kPa; Liquid; Alternating current cell with electrodes
READOUT KIND: electrical conductivity (S/m)

- COMPOUND: "CCCCn1cc[n+](C)c1.c1c[n-]cn1 [1-butyl-3-methylimidazolium imidazolide]"
  UNITS LABEL: "S/m"
  electrical conductivity: 0.284

1: C[n+]1ccn(CCCN)c1.c1c[n-]cn1 [1-(3-aminopropyl)-3-methylimidazolium imidazolide]
2: C[n+]1ccn(CCCCn2cc[n+](C)c2)c1.c1c[n-]cn1.c1c[n-]cn1
3: C[n+]1ccn(CCO)c1.c1c[n-]cn1 [1-(2-hydroxyethyl)-3-methylimidazolium imidazolide]
4: CCn1cc[n+](C)c1.c1c[n-]cn1 [1-ethyl-3-methylimidazolium imidazolide]
5: C[n+]1ccn(CCn2cc[n+](C)c2)c1.c1c[n-]cn1.c1c[n-]cn1
Highest electrical conductivity first, then in falling order down to the smallest. List labels; respect the requested ordering. 4, 1, 2, 5, 3

* * *

CONDITION: 303.15 K; 101.33 kPa; Liquid; Capillary tube (Ostwald / Ubbelohde) method
READOUT KIND: viscosity (mPa·s)

- MOLECULE: "C[n+]1ccn(CCCN)c1.c1c[n-]cn1 [1-(3-aminopropyl)-3-methylimidazolium imidazolide]"
  UNITS LABEL: "mPa·s"
  viscosity: 98.4
- MOLECULE: "C[n+]1ccn(CCO)c1.c1c[n-]cn1 [1-(2-hydroxyethyl)-3-methylimidazolium imidazolide]"
  UNITS LABEL: "mPa·s"
  viscosity: 8896
- MOLECULE: "CCCCn1cc[n+](C)c1.c1c[n-]cn1 [1-butyl-3-methylimidazolium imidazolide]"
  UNITS LABEL: "mPa·s"
  viscosity: 272.6

a: CCn1cc[n+](C)c1.c1c[n-]cn1 [1-ethyl-3-methylimidazolium imidazolide]
b: C[n+]1ccn(CCCCn2cc[n+](C)c2)c1.c1c[n-]cn1.c1c[n-]cn1
c: C[n+]1ccn(CCn2cc[n+](C)c2)c1.c1c[n-]cn1.c1c[n-]cn1
Highest viscosity first, then in falling order down to the smallest. List labels; respect the requested ordering. c, b, a
